Assay: Toxic changes in the ECG and therapeutic index in the rat
Assay type: in vivo
Details: in vivo, iv, quotient of ECG-toxic dose and antiarrhythmic ED 50
PARAMETER: selectivity ratio

In [3]: df
Out[3]:
                                   compound  prefix_operator  endpoint_value
0  Cc1nc(Cc2ccccc2)c2c(c1OCCCCNC(C)C)COC2O.Cl.Cl (centres unmarked) [Example 3, dihydrochloride]                =            14.4
1  Cc1nc(Cc2ccc(O)cc2)c2c(c1OCCCCNC(C)C)COC2                =            17.3
2  Cc1nc(Cc2ccccc2)c(CO)c(CN2CCOCC2)c1OCCCCNC(C)C.Cl.Cl.Cl [Example 1, trihydrochloride]                =            11.3
3  Cc1nc(Cc2ccccc2)c2c(c1OCCCCNC(C)C)C(O)OC2.Cl.Cl (centres unmarked) [Example 2, dihydrochloride]                >             9.9
4  Cc1nc(Cc2ccccc2)c2c(c1OCCCCNC(C)C)COC2 [Barucainid, reference compound]                =            5.13

###

Tested on: ECG (ST depression, disappearance of P, extrasystoles)
Test: Toxic changes in the ECG and therapeutic index in the rat
Format: in vivo
Conditions: i.v., toxic effect in the ECG (occurrence of extrasystoles)
PARAMETER: ECG-toxic dose

>>> print(df.to_string())
                                   compound  endpoint_value
0  Cc1nc(Cc2ccccc2)c2c(c1OCCCCNC(C)C)C(O)OC2.Cl.Cl (centres unmarked)    > 4.64 mg/kg
1  Cc1nc(Cc2ccc(O)cc2)c2c(c1OCCCCNC(C)C)COC2      46.4 mg/kg
2  Cc1nc(Cc2ccccc2)c2c(c1OCCCCNC(C)C)COC2O.Cl.Cl (centres unmarked)        10 mg/kg
3  Cc1nc(Cc2ccccc2)c(CO)c(CN2CCOCC2)c1OCCCCNC(C)C.Cl.Cl.Cl      2.15 mg/kg
4  Cc1nc(Cc2ccccc2)c2c(c1OCCCCNC(C)C)COC2 [Barucainid, reference compound]      10.0 mg/kg

###

Test system: aconitine-induced arrhythmia
Assay: Antiarrhythmic effect on the aconitine-induced arrhythmia in anesthetized rats
Assay type: in vivo, male Sprague-Dawley rats
Settings: rat, i.v.; maximum relative increase in the arrhythmogenic aconitine dose
PARAMETER: Antiarrhythmic effect, maximum effect

In [3]: df
Out[3]:
                                   compound                              parameter  endpoint_value
0  Cc1nc(Cc2ccc(O)cc2)c2c(c1OCCCCNC(C)C)COC2 [Example 4]  Antiarrhythmic effect, maximum effect         263 Δ %
1  Cc1nc(Cc2ccccc2)c2c(c1OCCCCNC(C)C)C(O)OC2.Cl.Cl (centres unmarked) [Example 2]  Antiarrhythmic effect, maximum effect         239 Δ %
2  Cc1nc(Cc2ccccc2)c2c(c1OCCCCNC(C)C)COC2O.Cl.Cl (centres unmarked) [Example 3]  Antiarrhythmic effect, maximum effect         276 Δ %
3  Cc1nc(Cc2ccccc2)c(CO)c(CN2CCOCC2)c1OCCCCNC(C)C.Cl.Cl.Cl [Example 1]  Antiarrhythmic effect, maximum effect         111 Δ %
4  Cc1nc(Cc2ccccc2)c2c(c1OCCCCNC(C)C)COC2 [Barucainid, reference compound]  Antiarrhythmic effect, maximum effect         105 Δ %
